molecular target: UniProt:P07374; test: biochemical; type: biochemical; details: in vitro; pH 6.8; 30 °C; 100 mM urea; thiourea as standard; read-out: IC50 ± SEM against the urease enzyme
Quantity Measured: pIC50
Just the number, please; pIC50 means minus log10 of the concentration in mol/L.

Q: Value lookup for pIC50; key = NC(N)=S [Standard Thiourea, thiourea, reference compound]
Result: 4.66

---

Provide the reported IC50 of each item.
biological target: urease enzyme (Canavalia ensiformis, UniProt P07374); experiment: biochemical; assay type: biochemical
Sequence (P07374 whole entry, looked up): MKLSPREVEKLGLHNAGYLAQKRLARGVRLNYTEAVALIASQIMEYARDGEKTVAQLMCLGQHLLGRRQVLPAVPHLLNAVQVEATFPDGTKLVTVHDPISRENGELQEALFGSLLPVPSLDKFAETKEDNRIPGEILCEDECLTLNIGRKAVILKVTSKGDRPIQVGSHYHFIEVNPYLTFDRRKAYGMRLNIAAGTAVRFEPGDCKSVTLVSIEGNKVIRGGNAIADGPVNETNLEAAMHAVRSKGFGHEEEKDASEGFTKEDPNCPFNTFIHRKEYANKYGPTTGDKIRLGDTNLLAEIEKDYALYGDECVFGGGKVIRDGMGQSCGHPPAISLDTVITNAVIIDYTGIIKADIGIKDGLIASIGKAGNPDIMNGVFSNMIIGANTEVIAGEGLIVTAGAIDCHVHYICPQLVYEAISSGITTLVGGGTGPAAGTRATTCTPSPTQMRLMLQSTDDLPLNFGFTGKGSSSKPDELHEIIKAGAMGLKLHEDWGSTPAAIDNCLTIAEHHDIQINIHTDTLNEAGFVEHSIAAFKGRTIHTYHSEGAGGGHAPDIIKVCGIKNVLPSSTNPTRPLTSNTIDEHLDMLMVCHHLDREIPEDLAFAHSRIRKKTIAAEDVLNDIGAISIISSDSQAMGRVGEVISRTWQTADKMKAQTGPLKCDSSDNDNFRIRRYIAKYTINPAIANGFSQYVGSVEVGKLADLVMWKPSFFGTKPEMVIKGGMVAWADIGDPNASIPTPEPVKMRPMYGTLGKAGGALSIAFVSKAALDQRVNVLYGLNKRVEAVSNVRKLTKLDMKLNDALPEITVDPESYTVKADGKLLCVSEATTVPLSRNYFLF
Numbers only; they are read as µM.

Q: Value lookup for IC50; key = "O=C(c1cccc(O)c1O)n1c2ccc([N+](=O)[O-])cc2c2nnc(SCc3nc4ccccc4o3)nc21"
Result: 1.7

Q: Value lookup for IC50; key = "O=C(c1ccc([N+](=O)[O-])cc1)n1c(CSc2nnc3c4cc([N+](=O)[O-])ccc4n(C(=O)c4ccc([N+](=O)[O-])cc4)c3n2)nc2ccccc21"
Result: 17.6

Q: Value lookup for IC50; key = "O=C(c1ccccc1F)n1c2ccc([N+](=O)[O-])cc2c2nnc(SCc3nc4ccccc4o3)nc21"
Result: 1.1

Q: Value lookup for IC50; key = "O=C(c1cccc([N+](=O)[O-])c1)n1c2ccc([N+](=O)[O-])cc2c2nnc(SCc3nc4ccccc4o3)nc21"
Result: 21.2
